Measured AtheNA signal by item
Molecular target: systemic lupus erythematosus autoantigen SSA
Experiment: AtheNA Multi-Lyte ANA, Ab at 12.5 ug/ml;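 also: monoclonal antibodies screened for binding to a panel of nuclear autoantigens (SSA, SSB, Sm, RNP, Scl-70, Jo-1, dsDNA, CentB, histones), with anti-HIV and anti-RSV antibodies as controls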
quantity_kind: AtheNA signal

INSERT INTO results (binder, quantity_kind, data_value) VALUES
  ('Ab7960/293i (antibody, IgG1, V domains shown, Recombinant human antibody with IgG1 heavy chain backbone and kappa light chain constant; they begin at LVESGGG and MTQSP; also called mAb 7960; mAb7960) VH: LVESGGGVVQPGKSLRLSCVASGFSFSTYGMHWVRQAPGKGLEWVAVMSFDGKTKYYADSVKGRFTISRDNPKNTLYLQMNSLRSEDTAVYYCAKGGAAAAVFDSWGPGILLTVSS VL: MTQSPNSLAVSLGGRATINCKASQSILYRSNNKNYLAWYQHKAGQPPKLLIYWASTRESGVPERFSGSGSRTDFTLTINGLQAEDVAVYYCQQYYNPPWTFGQGTKVEIK', 'AtheNA signal', 4),
  ('Ab7962/293i (antibody, V domains shown, Recombinant human antibody with IgG1 heavy chain backbone and kappa light chain constant (IgM in the donor B cell); they begin at LVESGGG and MTQSL; also called clone 27; pH007962/pK005996) VH: LVESGGGLVQPGGSLRLSCAASGFTFSSYEMNWVRQAPGKGLEWVSYISSSGSTIYYADSVKGRFTISRDNAKNSLYLQMNSLRAEDTAVYYCARVEQLAPSPYMDVWGKGTTVTVSS VL: MTQSLDSLTVSLGERATINCKSSQSLLYTSNNKNYLAWYQQKSGQPPKLLIYWASIRDSGVPDRFSGSGSATDFTLTINNLQAEDVAVYFCQQYYKTPLTFGGGTKVEVR', 'AtheNA signal', 2),
  ('Ab7955 (antibody, V domains shown, Recombinant human antibody with IgG1 heavy chain backbone and kappa light chain constant; also called mAb 7955; clone 19) VH: LVESGGGVVRPGRSLRLSCVASGFTFNAYGMHWVRQGPGKGLEWLAVISYEGKTVYYADSVKDRFTISRDNSRNTVSLHLNNLRGEDTAVYYCAKGSASAAVLQHWGQGTLVSVTS VL: MTQSPGSLAVSLGSRATINCKSSRSLLYRSNNKNYLAWYQQKPGQSPRLLIYWASSRESGVPDRFSGGGSGTSFTLTISSLQAEDVAVYYCQQYFNPPWTFGQGTKVEIK', 'AtheNA signal', 56);
